meta.source: paper PMC12040169

assay-notes: in vitro
condition: human, hela cells, % viability
outcome-measure: viability at 28.5 h, 10 µM (%)
Use % as the unit, but write only the number.

Below, 5 molecules whose answers are already recorded.
# molecule, units-text, viability at 28.5 h, 10 µM
measured = [
    ("Cc1nn(C)c(C)c1NC(=O)c1ccc(S(=O)(=O)N(C)C)cc1", "%", 93.8),
    ("O=C(CN1CCOCC1)Nc1ccc(S(=O)(=O)Nc2cc(Cl)cc(Cl)c2)cc1", "%", 89.1),
    ("O=C(Cn1cnc2c(cnn2-c2ccccc2)c1=O)N1CCc2ccccc21", "%", 91.7),
    ("O=C(/C=C/c1ccc2c(c1)OCO2)NCCSc1ccccn1", "%", 97.7),
    ("CCCCOC(=O)c1ccc(NC(=O)NCCc2cccs2)cc1", "%", 86),
]

QUERY: Can you look up the measured viability at 28.5 h, 10 µM of O=C(Nc1ccc2c(c1)OCCO2)N1CCCCC1CO (centres unmarked) for me?
RESULT: 105

QUERY: If you can, please state the reported viability at 28.5 h, 10 µM value of Cc1nc(Nc2ccc(Cl)cc2)nc(OC2CCNCC2)n1 .
RESULT: 90.5

QUERY: Which viability at 28.5 h, 10 µM is listed for CC(Oc1ccc(Cl)cc1Cl)C(=O)Nc1ccc2oc(-c3ccncc3)nc2c1 (centres unmarked) ?
RESULT: 109

QUERY: Bench note: what viability at 28.5 h, 10 µM did COCC(C)NC(=O)Cn1cccc2cc(C(F)F)nc1-2 (centres unmarked) show?
RESULT: 104

QUERY: What viability at 28.5 h, 10 µM value was documented for this molecule, Nc1cc(=O)[nH]c(SCC(=O)N2CCCc3ccccc32)n1 ?
RESULT: 94.1

QUERY: Item CC(C)(C)c1ccc(NC(=O)n2ccc3c(N4CCNCC4)cccc32)cc1 [CBK003736C] has what recorded viability at 28.5 h, 10 µM?
RESULT: 27

QUERY: Item under review: O=C(CN1CCCCC1)Nc1cccc(-n2cnnn2)c1 . Reported viability at 28.5 h, 10 µM?
RESULT: 105

QUERY: Could you tell me which viability at 28.5 h, 10 µM is on file for CS(=O)(=O)N1CC2(CCN(Cc3ccccc3)CC2)c2ccccc21 ?
RESULT: 89.9

QUERY: What does the data say about its viability at 28.5 h, 10 µM? Entry: CNC(=O)c1cnc2sc3c(n2c1=O)CCCC3
RESULT: 102

QUERY: Data request, read-out viability at 28.5 h, 10 µM, for CCCCOC(=O)c1ccc(NC(=O)c2cc(-c3ccco3)nc3c2c(C)nn3C)cc1
RESULT: 103

QUERY: Could you share which viability at 28.5 h, 10 µM value was measured for CCc1nnc(NC(=O)c2cccc(F)c2)s1 ?
RESULT: 90.4

QUERY: I have this molecule here, CCc1nnc(NS(=O)(=O)c2ccc(NC(=S)Nc3ccc(F)cc3)cc2)s1 , and I need its recorded viability at 28.5 h, 10 µM.
RESULT: 89.7

QUERY: Entry COc1ccc(N2C(=O)CC(NNC(=O)CNC(C)=O)C2=O)cc1 (centres unmarked) : reported viability at 28.5 h, 10 µM = ?
RESULT: 87.7
